target system: CK2 (Homo sapiens)
Construct: lines 1-140) and Reaction Biology
Sequence (P68400 whole entry): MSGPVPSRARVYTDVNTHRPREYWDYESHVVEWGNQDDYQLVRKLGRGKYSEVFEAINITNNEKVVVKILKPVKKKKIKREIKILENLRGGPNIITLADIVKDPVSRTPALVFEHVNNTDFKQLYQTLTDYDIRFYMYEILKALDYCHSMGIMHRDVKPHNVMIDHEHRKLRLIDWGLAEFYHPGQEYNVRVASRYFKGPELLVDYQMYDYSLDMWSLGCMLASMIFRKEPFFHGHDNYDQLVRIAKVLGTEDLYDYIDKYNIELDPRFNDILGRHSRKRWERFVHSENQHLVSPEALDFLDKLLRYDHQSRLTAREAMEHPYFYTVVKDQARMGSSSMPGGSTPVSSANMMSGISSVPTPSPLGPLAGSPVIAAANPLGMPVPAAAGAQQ
experiment notes: Dundee kinase panel
Type: biochemical
assay conditions: read-out: residual activity
Procedure: Compounds were screened at 1 μM. For key hits, pIC50 values were then determined by HTRF as above. […] Stability in mouse and human liver microsomes was determined by Cyprotex.
property measured: remaining activity at 1 µM (%)
Answers are plain numbers, in %.

Guide cases for remaining activity at 1 µM, answers given:
| compound | measured |
| --- | --- |
| Oc1ncnc2c1c(-c1ccccc1)cn2-c1ccccc1 [F1386-0303] | 77 |
| COCCOc1ccc(-c2cn(-c3ccccc3)c3nc[nH]c(=O)c23)cc1 [DMX-5804] | 104 |

Look at each compound and report its remaining activity at 1 µM.
1. O=C1Cc2c([nH]c3ccc(Br)cc23)-c2ccccc2N1 [Kenpaullone]
2. O=C1Nc2ccc(I)cc2/C1=C/c1cc(Br)c(O)c(Br)c1 [GW5074]

a:
1: 90; 2: 72

###

Exercise: state measured remaining activity at 1 µM for each of the compounds provided.
target system: EF2K (Homo sapiens)
Construct: lines 1-140) and Reaction Biology
Sequence (O00418 whole entry): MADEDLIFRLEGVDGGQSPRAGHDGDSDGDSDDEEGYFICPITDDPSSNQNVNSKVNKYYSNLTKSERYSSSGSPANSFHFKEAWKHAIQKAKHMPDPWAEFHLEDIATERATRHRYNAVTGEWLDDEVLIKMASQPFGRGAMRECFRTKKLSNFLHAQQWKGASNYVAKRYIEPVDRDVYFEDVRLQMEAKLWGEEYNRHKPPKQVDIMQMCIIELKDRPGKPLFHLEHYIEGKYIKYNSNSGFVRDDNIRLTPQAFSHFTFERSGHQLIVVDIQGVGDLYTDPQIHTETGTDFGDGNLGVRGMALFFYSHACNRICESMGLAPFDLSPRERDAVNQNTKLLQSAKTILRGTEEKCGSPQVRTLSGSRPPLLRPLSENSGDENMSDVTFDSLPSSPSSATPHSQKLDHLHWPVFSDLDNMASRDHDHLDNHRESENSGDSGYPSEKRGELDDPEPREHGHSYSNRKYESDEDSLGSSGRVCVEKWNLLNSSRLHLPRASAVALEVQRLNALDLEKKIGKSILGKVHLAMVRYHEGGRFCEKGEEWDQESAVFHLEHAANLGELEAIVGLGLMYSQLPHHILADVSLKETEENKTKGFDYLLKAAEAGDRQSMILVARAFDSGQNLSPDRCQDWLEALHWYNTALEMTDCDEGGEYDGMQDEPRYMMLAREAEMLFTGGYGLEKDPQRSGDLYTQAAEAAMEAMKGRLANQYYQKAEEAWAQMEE
experiment notes: Dundee kinase panel
Assay type: biochemical
assay conditions: read-out: residual activity
Answers are plain numbers, in %.

Guide cases for remaining activity at 1 µM, answers given:
| record smiles | property measured | scale unit | measured |
| --- | --- | --- | --- |
| COCCOc1ccc(-c2cn(-c3ccccc3)c3nc[nH]c(=O)c23)cc1 | remaining activity at 1 µM | % | 104 |
| O=C1Cc2c([nH]c3ccc(Br)cc23)-c2ccccc2N1 | remaining activity at 1 µM | % | 97 |
| O=C1Nc2ccc(I)cc2/C1=C/c1cc(Br)c(O)c(Br)c1 | remaining activity at 1 µM | % | 57 |

q: Missing value: remaining activity at 1 µM, EF2K (Homo sapiens), entry Oc1ncnc2c1c(-c1ccccc1)cn2-c1ccccc1 . Fill in?
a: 99

###

Exercise: state measured remaining activity at 1 µM for each of the compounds provided.
target system: ROCK 2 (Homo sapiens, UniProt O75116)
Construct: lines 1-140) and Reaction Biology
experiment notes: Dundee kinase panel
Type: biochemical
assay conditions: read-out: residual activity
One number for each entry, in %.

Guide cases for remaining activity at 1 µM, answers given:
| compound | scale unit | remaining activity at 1 µM |
| --- | --- | --- |
| COCCOc1ccc(-c2cn(-c3ccccc3)c3nc[nH]c(=O)c23)cc1 [DMX-5804] | % | 104 |
| O=C1Nc2ccc(I)cc2/C1=C/c1cc(Br)c(O)c(Br)c1 [GW5074] | % | 56 |
| O=C1Cc2c([nH]c3ccc(Br)cc23)-c2ccccc2N1 [Kenpaullone] | % | 62 |

q: Missing value: remaining activity at 1 µM, ROCK 2 (Homo sapiens, UniProt O75116), entry Oc1ncnc2c1c(-c1ccccc1)cn2-c1ccccc1 [F1386-0303] . Fill in?
a: 132

###

target system: MPSK1 (Homo sapiens, UniProt O75716)
Construct: lines 1-140) and Reaction Biology
Sequence (O75716 whole entry): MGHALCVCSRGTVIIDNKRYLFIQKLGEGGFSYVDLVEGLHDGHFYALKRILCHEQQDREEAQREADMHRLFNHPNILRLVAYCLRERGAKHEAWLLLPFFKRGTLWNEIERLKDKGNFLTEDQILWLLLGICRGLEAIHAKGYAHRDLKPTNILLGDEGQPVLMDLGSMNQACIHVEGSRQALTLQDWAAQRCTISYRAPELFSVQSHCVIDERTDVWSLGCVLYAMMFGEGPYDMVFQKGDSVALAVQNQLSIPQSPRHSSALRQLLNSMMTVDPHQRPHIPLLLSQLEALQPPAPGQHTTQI
experiment notes: Dundee kinase panel
Assay type: biochemical
assay conditions: read-out: residual activity
Exercise: state measured remaining activity at 1 µM for each of the compounds provided.
Answers are plain numbers, in %.

Guide cases for remaining activity at 1 µM, answers given:
| record smiles | measured |
| --- | --- |
| COCCOc1ccc(-c2cn(-c3ccccc3)c3nc[nH]c(=O)c23)cc1 | 103 |
| Oc1ncnc2c1c(-c1ccccc1)cn2-c1ccccc1 | 117 |
| O=C1Nc2ccc(I)cc2/C1=C/c1cc(Br)c(O)c(Br)c1 | 38 |

Now look at this entry.
q: Query: remaining activity at 1 µM; subject: O=C1Cc2c([nH]c3ccc(Br)cc23)-c2ccccc2N1
a: 74

###

experiment notes: Oral PK
Format: in vivo, female CD-1 mice
assay conditions: female, CD-1, mouse; Oral PK (50 mg kg^−1); mice; plasma
property measured: Cmax (µM)
One number for each entry, in µM.

| compound | Cmax / µM |
| --- | --- |
| Oc1ncnc2c1c(-c1ccccc1)cn2-c1ccccc1 [F1386-0303] | 0.295 |

q: Query: Cmax; subject: COCCOc1ccc(-c2cn(-c3ccccc3)c3nc[nH]c(=O)c23)cc1 [DMX-5804]
a: 13.8

###

target system: Aurora B (Homo sapiens, UniProt Q96GD4)
Sequence (Q96GD4 whole entry): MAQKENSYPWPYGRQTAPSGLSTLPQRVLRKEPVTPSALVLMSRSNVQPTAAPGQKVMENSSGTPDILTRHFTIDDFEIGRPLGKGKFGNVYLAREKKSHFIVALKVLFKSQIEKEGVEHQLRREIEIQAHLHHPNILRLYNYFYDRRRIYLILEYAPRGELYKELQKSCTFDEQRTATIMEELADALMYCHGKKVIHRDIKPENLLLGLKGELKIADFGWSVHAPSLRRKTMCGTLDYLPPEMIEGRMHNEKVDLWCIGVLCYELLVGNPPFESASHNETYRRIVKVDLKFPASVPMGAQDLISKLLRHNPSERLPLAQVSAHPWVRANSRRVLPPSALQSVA
property measured: pIC50
One number for each entry, as −log10 of the molar value.

q: Query: pIC50; subject: Oc1ncnc2c1c(-c1ccccc1)cn2-c1ccccc1
a: 4.88

###

Exercise: state measured remaining activity at 1 µM for each of the compounds provided.
target system: JNK3 (Homo sapiens)
Construct: lines 1-140) and Reaction Biology
Sequence (P53779 whole entry): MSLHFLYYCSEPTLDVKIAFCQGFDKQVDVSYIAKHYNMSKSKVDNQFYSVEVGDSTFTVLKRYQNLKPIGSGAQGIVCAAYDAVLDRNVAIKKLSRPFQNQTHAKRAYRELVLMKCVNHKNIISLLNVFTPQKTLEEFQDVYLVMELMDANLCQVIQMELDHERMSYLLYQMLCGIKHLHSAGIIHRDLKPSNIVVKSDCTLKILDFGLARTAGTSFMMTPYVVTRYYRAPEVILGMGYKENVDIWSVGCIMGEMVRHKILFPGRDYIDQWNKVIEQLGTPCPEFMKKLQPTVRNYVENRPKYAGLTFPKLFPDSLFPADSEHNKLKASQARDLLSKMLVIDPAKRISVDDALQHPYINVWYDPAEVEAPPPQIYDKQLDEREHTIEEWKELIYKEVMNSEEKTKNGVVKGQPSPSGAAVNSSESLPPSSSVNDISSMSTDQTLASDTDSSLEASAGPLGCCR
experiment notes: Dundee kinase panel
Type: biochemical
assay conditions: read-out: residual activity
# do not omit the unit; it follows the number

| record smiles | target system | property measured | measured |
| --- | --- | --- | --- |
| O=C1Nc2ccc(I)cc2/C1=C/c1cc(Br)c(O)c(Br)c1 | JNK3 (Homo sapiens) | remaining activity at 1 µM | 65% |

Look at each compound and report its remaining activity at 1 µM.
1. O=C1Cc2c([nH]c3ccc(Br)cc23)-c2ccccc2N1
2. Oc1ncnc2c1c(-c1ccccc1)cn2-c1ccccc1
3. COCCOc1ccc(-c2cn(-c3ccccc3)c3nc[nH]c(=O)c23)cc1

a:
1: 87%; 2: 92%; 3: 127%

###

Exercise: state measured remaining activity at 1 µM for each of the molecules provided.
target system: PLK1 (Homo sapiens, UniProt P53350)
Construct: lines 1-140) and Reaction Biology
Sequence (P53350 whole entry): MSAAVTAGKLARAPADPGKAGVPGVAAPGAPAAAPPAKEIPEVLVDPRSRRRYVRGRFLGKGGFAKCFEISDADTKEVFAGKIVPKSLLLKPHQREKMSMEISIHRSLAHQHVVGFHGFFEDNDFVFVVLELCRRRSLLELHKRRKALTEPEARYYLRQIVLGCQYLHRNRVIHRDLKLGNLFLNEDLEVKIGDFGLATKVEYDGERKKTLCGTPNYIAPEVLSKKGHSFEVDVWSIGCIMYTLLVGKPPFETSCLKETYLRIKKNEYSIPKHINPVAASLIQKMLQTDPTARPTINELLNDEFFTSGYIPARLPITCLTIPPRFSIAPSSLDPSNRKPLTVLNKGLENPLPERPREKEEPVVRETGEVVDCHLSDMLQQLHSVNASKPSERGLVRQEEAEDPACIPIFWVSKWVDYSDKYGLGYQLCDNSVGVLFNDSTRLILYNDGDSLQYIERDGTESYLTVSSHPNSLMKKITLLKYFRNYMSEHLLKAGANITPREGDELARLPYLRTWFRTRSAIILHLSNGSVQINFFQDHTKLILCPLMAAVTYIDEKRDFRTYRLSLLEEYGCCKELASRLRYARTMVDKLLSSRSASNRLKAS
experiment notes: Dundee kinase panel
Assay type: biochemical
assay conditions: read-out: residual activity
One number for each entry, in %.

Guide cases for remaining activity at 1 µM, answers given:
| record smiles | scale unit | measured |
| --- | --- | --- |
| O=C1Nc2ccc(I)cc2/C1=C/c1cc(Br)c(O)c(Br)c1 | % | 81 |
| COCCOc1ccc(-c2cn(-c3ccccc3)c3nc[nH]c(=O)c23)cc1 | % | 118 |
| O=C1Cc2c([nH]c3ccc(Br)cc23)-c2ccccc2N1 | % | 99 |

Now look at this entry.
q: Missing value: remaining activity at 1 µM, PLK1 (Homo sapiens, UniProt P53350), entry Oc1ncnc2c1c(-c1ccccc1)cn2-c1ccccc1 . Fill in?
a: 100

###

target system: T1, CDK9-Cyclin T1 (Homo sapiens, UniProt P50750)
T1 construct: lines 1-140) and Reaction Biology
T1 sequence (P50750 whole entry): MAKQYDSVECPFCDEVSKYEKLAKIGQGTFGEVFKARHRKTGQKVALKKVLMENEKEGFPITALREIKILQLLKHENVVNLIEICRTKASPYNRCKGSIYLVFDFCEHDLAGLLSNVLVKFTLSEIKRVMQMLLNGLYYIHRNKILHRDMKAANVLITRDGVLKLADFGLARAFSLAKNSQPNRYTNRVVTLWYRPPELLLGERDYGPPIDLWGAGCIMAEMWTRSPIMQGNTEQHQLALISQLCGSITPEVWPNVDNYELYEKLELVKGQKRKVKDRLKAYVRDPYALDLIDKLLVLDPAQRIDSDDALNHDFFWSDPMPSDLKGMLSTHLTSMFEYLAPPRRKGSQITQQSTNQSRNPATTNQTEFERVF
T1 sequence (O60563 whole entry partner): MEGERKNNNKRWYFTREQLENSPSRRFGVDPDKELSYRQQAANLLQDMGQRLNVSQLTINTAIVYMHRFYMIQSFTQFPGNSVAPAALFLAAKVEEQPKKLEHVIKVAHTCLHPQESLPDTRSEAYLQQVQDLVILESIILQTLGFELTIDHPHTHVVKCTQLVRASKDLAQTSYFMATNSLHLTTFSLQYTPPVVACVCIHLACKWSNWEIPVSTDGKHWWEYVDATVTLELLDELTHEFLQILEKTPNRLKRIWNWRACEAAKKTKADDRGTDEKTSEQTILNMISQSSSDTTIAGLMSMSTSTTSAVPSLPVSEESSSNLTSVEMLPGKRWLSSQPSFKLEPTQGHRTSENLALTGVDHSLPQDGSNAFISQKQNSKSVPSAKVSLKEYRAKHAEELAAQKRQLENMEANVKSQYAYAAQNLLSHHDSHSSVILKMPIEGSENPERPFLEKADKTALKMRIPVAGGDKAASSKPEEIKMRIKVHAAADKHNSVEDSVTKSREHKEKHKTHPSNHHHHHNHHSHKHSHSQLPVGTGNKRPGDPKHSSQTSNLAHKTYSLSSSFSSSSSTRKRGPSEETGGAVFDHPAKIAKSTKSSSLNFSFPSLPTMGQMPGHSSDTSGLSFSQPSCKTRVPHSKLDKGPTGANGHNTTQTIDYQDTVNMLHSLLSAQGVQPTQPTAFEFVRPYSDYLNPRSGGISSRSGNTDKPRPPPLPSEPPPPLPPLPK
experiment notes: Dundee kinase panel
Type: biochemical
assay conditions: read-out: residual activity
Description: Compounds were screened at 1 μM. For key hits, pIC50 values were then determined by HTRF as above. […] Stability in mouse and human liver microsomes was determined by Cyprotex.
property measured: remaining activity at 1 µM (%)
Answers are plain numbers, in %.

Guide cases for remaining activity at 1 µM, answers given:
| record smiles | target system | remaining activity at 1 µM (%) |
| --- | --- | --- |
| COCCOc1ccc(-c2cn(-c3ccccc3)c3nc[nH]c(=O)c23)cc1 | T1, CDK9-Cyclin T1 (Homo sapiens, UniProt P50750) | 113 |
| Oc1ncnc2c1c(-c1ccccc1)cn2-c1ccccc1 | T1, CDK9-Cyclin T1 (Homo sapiens, UniProt P50750) | 88 |
| O=C1Cc2c([nH]c3ccc(Br)cc23)-c2ccccc2N1 | T1, CDK9-Cyclin T1 (Homo sapiens, UniProt P50750) | 22 |

Now look at this entry.
q: Query: remaining activity at 1 µM; subject: O=C1Nc2ccc(I)cc2/C1=C/c1cc(Br)c(O)c(Br)c1
a: 104

###

Exercise: state measured remaining activity at 1 µM for each of the compounds provided.
target system: VEGFR (Homo sapiens)
Construct: lines 1-140) and Reaction Biology
experiment notes: Dundee kinase panel
Type: biochemical
assay conditions: read-out: residual activity
# do not omit the unit; it follows the number

Guide cases for remaining activity at 1 µM, answers given:
| compound | remaining activity at 1 µM |
| --- | --- |
| O=C1Nc2ccc(I)cc2/C1=C/c1cc(Br)c(O)c(Br)c1 [GW5074] | 29% |
| COCCOc1ccc(-c2cn(-c3ccccc3)c3nc[nH]c(=O)c23)cc1 [DMX-5804] | 27% |
| O=C1Cc2c([nH]c3ccc(Br)cc23)-c2ccccc2N1 [Kenpaullone] | 30% |

Now look at this entry.
q: Query: remaining activity at 1 µM; subject: Oc1ncnc2c1c(-c1ccccc1)cn2-c1ccccc1 [F1386-0303]
a: 73%

###

target system: TAO1 (Homo sapiens)
Construct: lines 1-140) and Reaction Biology
Sequence (Q7L7X3 whole entry): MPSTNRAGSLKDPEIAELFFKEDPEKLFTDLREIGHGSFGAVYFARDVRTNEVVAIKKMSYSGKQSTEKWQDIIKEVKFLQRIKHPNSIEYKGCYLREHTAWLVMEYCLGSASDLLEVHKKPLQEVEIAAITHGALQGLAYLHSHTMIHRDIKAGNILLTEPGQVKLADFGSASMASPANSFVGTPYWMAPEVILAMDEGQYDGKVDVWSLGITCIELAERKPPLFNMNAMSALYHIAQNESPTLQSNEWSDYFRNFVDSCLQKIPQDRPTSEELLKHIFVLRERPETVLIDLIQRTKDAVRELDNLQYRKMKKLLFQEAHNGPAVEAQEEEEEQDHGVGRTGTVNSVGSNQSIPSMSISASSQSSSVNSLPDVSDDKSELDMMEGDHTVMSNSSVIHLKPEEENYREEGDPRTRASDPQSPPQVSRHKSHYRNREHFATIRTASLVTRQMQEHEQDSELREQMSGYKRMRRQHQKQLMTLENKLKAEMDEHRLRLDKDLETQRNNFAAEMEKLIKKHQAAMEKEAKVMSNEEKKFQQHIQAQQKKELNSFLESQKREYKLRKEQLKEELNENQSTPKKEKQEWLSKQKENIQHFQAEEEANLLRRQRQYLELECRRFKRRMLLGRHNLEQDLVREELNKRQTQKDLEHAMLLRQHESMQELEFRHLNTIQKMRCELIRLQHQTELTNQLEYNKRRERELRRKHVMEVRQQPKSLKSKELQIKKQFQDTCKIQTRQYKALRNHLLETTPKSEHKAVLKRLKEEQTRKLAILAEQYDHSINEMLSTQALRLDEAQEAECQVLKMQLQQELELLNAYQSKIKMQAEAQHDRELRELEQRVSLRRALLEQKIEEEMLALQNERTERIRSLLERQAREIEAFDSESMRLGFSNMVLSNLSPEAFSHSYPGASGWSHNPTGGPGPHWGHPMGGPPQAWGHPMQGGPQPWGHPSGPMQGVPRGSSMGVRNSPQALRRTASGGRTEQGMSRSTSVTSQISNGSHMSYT
experiment notes: Dundee kinase panel
Assay type: biochemical
assay conditions: read-out: residual activity
Method: Compounds were screened at 1 μM. For key hits, pIC50 values were then determined by HTRF as above. […] Stability in mouse and human liver microsomes was determined by Cyprotex.
Exercise: state measured remaining activity at 1 µM for each of the compounds provided.
Give bare numbers, in %.

| record smiles | remaining activity at 1 µM / % |
| --- | --- |
| O=C1Nc2ccc(I)cc2/C1=C/c1cc(Br)c(O)c(Br)c1 | 96 |
| O=C1Cc2c([nH]c3ccc(Br)cc23)-c2ccccc2N1 | 93 |
| Oc1ncnc2c1c(-c1ccccc1)cn2-c1ccccc1 | 98 |

Now look at this entry.
q: Missing value: remaining activity at 1 µM, TAO1 (Homo sapiens), entry COCCOc1ccc(-c2cn(-c3ccccc3)c3nc[nH]c(=O)c23)cc1 . Fill in?
a: 120

Numbers sourced from paper PMC6458995.
